- Test Method Notes: NF-kB promoter reporter activators, neuronal cells, dose response, cell-based, SH-SY5Y, luciferase (AID 1241)
- Assay Setup: fold induction

{"columns": ["Compound", "EC50"],
 "data": [
  ["COc1cccc([C@@H]2Oc3ccc(OC)cc3C(=O)[C@H]2O)c1", "5.86 µM"],
  ["COc1ccc(/C=N/Nc2ncccc2[N+](=O)[O-])c(OC)c1", "3.35 µM"],
  ["Cc1ccsc1/C=N/Nc1nc2ccccc2s1", "0.803 µM"],
  ["Oc1sc(C=Nc2ccccc2)c2ccccc12", "10.5 µM"],
  ["Cn1cccc1/C=C1\\CCc2ccccc2C1=O", "1.63 µM"],
  ["c1ccc(OCCSc2nnnn2-c2ccccc2)cc1", "8.35 µM"],
  ["CCOC(=O)N/C(N)=N/c1nc2ccccc2s1", "9.45 µM"],
  ["COc1ccc(/C=C2\\SC(=O)N(CCNC(=O)C3CC4C=CC3C4)C2=O)cc1 (configuration not stated)", "4.14 µM"],
  ["Clc1ccccc1Nc1nc(-c2cccnc2)cs1", "1.86 µM"],
  ["CCCCCCCOc1ccc(OC(=O)c2cccnc2)cc1", "0.161 µM"],
  ["CCC(=O)Nc1ccc2oc(-c3ccccc3Br)nc2c1", "2.64 µM"],
  ["Clc1ccc(-c2nnc(-c3ccccc3Cl)o2)cc1", "2.35 µM"]
]}
